# Tested on: SARS-CoV-2 WA/1
# experiment description: microbe, parasite or virus in culture
# Assay type: cell-based
# condition info: Severe acute respiratory syndrome coronavirus 2, read-out: EC50, inhibition of SARS-CoV-2 replication
Assign pEC50 to each entry below.
Please express pEC50 as -log10 of the molar concentration.

Entry CC(C)(C)[C@H](NC(=O)C(F)(F)F)C(=O)N1C[C@H]2[C@@H]([C@H]1C(=O)N[C@H](C#N)C[C@@H]1CCNC1=O)C2(C)C , tested on SARS-CoV-2 WA/1, has a reported pEC50 of 7.15

Short answer on SARS-CoV-2 WA/1 for CCC(CC)COC(=O)[C@H](C)N[P@](=O)(OC[C@H]1O[C@@](C#N)(c2ccc3c(N)ncnn23)[C@H](O)[C@@H]1O)Oc1ccccc1 , pEC50: 6.72

With SARS-CoV-2 WA/1 as the test system, CC(C)C(=O)OC[C@H]1O[C@@](C#N)(c2ccc3c(N)ncnn23)[C@H](O)[C@@H]1O showed pEC50 of 6.13

Entry N#C[C@@]1(c2ccc3c(N)ncnn23)O[C@H](CO)[C@@H](O)[C@H]1O , SARS-CoV-2 WA/1 data, pEC50 value: 5.34

Provenance of the data: paper PMC11333937
